// data source = ChEMBL document CHEMBL3991601

target: Dual specificity mitogen-activated protein kinase kinase 1 (Homo sapiens); also: in the data inactive means no Kd found up to 30 µM
Sequence (Q02750 whole entry): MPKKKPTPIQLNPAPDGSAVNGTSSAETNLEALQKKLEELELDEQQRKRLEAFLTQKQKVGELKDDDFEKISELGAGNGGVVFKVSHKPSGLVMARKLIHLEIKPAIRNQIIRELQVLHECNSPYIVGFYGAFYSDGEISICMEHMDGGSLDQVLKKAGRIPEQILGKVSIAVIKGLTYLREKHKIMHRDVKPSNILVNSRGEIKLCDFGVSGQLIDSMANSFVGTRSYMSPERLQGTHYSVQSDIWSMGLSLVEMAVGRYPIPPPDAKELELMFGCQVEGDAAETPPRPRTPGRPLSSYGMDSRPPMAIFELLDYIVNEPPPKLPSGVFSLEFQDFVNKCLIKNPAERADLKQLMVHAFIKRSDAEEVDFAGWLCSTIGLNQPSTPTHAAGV
The source made the active and inactive calls.
Thanks in advance; please answer with one of these: t (active), f (inactive)

compound | group-label
O=C1NC(=O)/C(=C/c2ccc3nccc(-c4ccncc4)c3c2)S1 [GSK-1059615] | t
CC[C@H](Nc1ncnc2[nH]cnc12)c1nc2cccc(F)c2c(=O)n1-c1ccccc1 [IDELALISIB] | f
CNC(=O)CN1CCC(Oc2cc3c(Nc4cccc(Cl)c4F)ncnc3cc2OC)CC1 [SAPITINIB] | f
CCn1c(=O)c(-c2cc[nH]n2)cc2c(C)nc(N)nc21 [VOXTALISIB] | f
CCS(=O)(=O)N1CC(CC#N)(n2cc(-c3ncnc4[nH]ccc34)cn2)C1 [BARICITINIB] | f
CNC(=O)c1ccc(C)c(-n2c(C)cc(OCc3ccc(F)cc3F)c(Br)c2=O)c1 [PH-797804] | f
CNC(=O)c1ccc(-c2cnc3ncc(Cc4ccc5ncccc5c4)n3n2)cc1F [CAPMATINIB] | f
COC(=O)N[C@@H](C)CNc1nccc(-c2cn(C(C)C)nc2-c2cc(Cl)cc(NS(C)(=O)=O)c2F)n1 [ENCORAFENIB] | f
C[C@@H](Nc1cc(F)cc(F)c1)c1cc(C(=O)N(C)C)cc2c(=O)cc(N3CCOCC3)oc12 [AZD-8186] | f
Cc1cc(Nc2cc(N3CCN(C)CC3)nc(/C=C/c3ccccc3)n2)n[nH]1 [ENMD-2076] | f

Short answer needed: outcome of this test for Cc1ccc(NC(=O)c2ccc(CN3CC[C@H](N(C)C)C3)c(C(F)(F)F)c2)cc1Nc1nccc(-c2cncnc2)n1 [BAFETINIB] ? f

Short answer needed: outcome of this test for CNC(=O)c1cc(Oc2ccc(NC(=O)Nc3ccc(Cl)c(C(F)(F)F)c3)c(F)c2)ccn1 [REGORAFENIB] ? f

Short answer needed: outcome of this test for CN1CCC(CNc2ccc3ncc(-c4cccc(OC(F)(F)F)c4)n3n2)CC1 [SGI-1776] ? f

Short answer needed: outcome of this test for CN(C)C(=O)c1cc2cnc(Nc3ccc(N4CCNCC4)cn3)nc2n1C1CCCC1 [RIBOCICLIB] ? f

Short answer needed: outcome of this test for COc1cc(CCc2cc(NC(=O)c3ccc(N4C[C@@H](C)N[C@@H](C)C4)cc3)n[nH]2)cc(OC)c1 [AZD-4547] ? f

Short answer needed: outcome of this test for Cn1cc(-c2ccc(F)c(C(F)(F)F)c2)nc1C1CCN(c2ncnc3[nH]ncc23)CC1 [LY-2584702] ? f

Short answer needed: outcome of this test for CC[C@@H]1C(=O)N(C)c2cnc(Nc3ccc(C(=O)N[C@H]4CC[C@H](N5CCN(CC6CC6)CC5)CC4)cc3OC)nc2N1C(C)C [VOLASERTIB] ? f

* * *

target: Tyrosine-protein kinase FRK (Homo sapiens); also: in the data inactive means no Kd found up to 30 µM
Sequence (P42685 whole entry): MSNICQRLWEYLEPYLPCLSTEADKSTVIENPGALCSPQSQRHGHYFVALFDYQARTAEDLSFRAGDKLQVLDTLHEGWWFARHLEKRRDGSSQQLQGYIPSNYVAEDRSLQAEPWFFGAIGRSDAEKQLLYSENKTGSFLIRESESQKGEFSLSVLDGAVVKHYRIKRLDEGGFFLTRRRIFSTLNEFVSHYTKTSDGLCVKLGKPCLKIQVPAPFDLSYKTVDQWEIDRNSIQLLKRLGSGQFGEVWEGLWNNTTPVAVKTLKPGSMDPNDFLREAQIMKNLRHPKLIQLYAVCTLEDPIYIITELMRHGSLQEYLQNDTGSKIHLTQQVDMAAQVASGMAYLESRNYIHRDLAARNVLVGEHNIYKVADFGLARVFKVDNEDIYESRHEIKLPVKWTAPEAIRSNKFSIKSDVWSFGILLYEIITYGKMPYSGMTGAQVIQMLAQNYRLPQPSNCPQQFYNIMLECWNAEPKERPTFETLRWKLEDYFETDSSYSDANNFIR
The source made the active and inactive calls.
Thanks in advance; please answer with one of these: yes = active, no = inactive

compound | system-name | group-label
COCCNCc1ccc(-c2cc3nccc(Oc4ccc(NC(=S)NC(=O)Cc5ccc(F)cc5)cc4F)c3s2)nc1 [GLESATINIB] | Tyrosine-protein kinase FRK (Homo sapiens) | yes

Then there is this compound:
Short answer needed: outcome of this test for CN1CCC(CNc2ccc3ncc(-c4cccc(OC(F)(F)F)c4)n3n2)CC1 [SGI-1776] ? no

* * *

target: Serine/threonine-protein kinase 26 (Homo sapiens, UniProt Q9P289); also: in the data inactive means no Kd found up to 30 µM
Sequence (Q9P289 whole entry): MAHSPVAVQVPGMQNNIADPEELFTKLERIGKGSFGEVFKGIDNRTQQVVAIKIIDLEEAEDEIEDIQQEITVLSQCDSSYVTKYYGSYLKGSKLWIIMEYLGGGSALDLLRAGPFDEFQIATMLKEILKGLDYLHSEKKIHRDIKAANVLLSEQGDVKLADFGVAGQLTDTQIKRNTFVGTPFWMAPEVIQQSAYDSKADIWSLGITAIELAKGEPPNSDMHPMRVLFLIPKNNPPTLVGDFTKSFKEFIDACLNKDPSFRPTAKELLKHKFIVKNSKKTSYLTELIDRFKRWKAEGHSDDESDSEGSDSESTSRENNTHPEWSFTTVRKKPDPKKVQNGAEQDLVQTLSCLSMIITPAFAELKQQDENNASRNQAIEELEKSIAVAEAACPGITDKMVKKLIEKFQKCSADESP
The source made the active and inactive calls.
Thanks in advance; please answer with one of these: YES (active), NO (inactive)

A selection of reference data follows.
compound | group-label
Cc1cc2c(F)c(Oc3ncnn4cc(OC[C@@H](C)OC(=O)[C@H](C)N)c(C)c34)ccc2[nH]1 [BRIVANIB ALANINATE] | NO
COC(=O)N[C@@H](C)CNc1nccc(-c2cn(C(C)C)nc2-c2cc(Cl)cc(NS(C)(=O)=O)c2F)n1 | NO
CCn1c(=O)c(-c2cc[nH]n2)cc2c(C)nc(N)nc21 | NO
CCc1cnn2c(NCc3ccc[n+]([O-])c3)cc(N3CCCC[C@H]3CCO)nc12 | YES
CCCS(=O)(=O)Nc1ccc(F)c(C(=O)c2c[nH]c3ncc(-c4ccc(Cl)cc4)cc23)c1F | NO
CC(=O)Nc1cccc(-n2c(=O)n(C3CC3)c(=O)c3c(Nc4ccc(I)cc4F)n(C)c(=O)c(C)c32)c1 | NO
Cc1c(F)cc(C(=O)NC2CC2)cc1-c1ccc(C(=O)NCC(C)(C)C)cn1 | NO
O=C1NC(=O)/C(=C/c2ccc3nccc(-c4ccncc4)c3c2)S1 | NO

Then there is this compound:
Short answer needed: outcome of this test for `Cc1ccc(NC(=O)c2ccc(CN3CC[C@H](N(C)C)C3)c(C(F)(F)F)c2)cc1Nc1nccc(-c2cncnc2)n1` ? NO

* * *

Target: MAP/microtubule affinity-regulating kinase 4 (Homo sapiens, UniProt Q96L34); also: in the data inactive means no Kd found up to 30 µM
Sequence (Q96L34 whole entry): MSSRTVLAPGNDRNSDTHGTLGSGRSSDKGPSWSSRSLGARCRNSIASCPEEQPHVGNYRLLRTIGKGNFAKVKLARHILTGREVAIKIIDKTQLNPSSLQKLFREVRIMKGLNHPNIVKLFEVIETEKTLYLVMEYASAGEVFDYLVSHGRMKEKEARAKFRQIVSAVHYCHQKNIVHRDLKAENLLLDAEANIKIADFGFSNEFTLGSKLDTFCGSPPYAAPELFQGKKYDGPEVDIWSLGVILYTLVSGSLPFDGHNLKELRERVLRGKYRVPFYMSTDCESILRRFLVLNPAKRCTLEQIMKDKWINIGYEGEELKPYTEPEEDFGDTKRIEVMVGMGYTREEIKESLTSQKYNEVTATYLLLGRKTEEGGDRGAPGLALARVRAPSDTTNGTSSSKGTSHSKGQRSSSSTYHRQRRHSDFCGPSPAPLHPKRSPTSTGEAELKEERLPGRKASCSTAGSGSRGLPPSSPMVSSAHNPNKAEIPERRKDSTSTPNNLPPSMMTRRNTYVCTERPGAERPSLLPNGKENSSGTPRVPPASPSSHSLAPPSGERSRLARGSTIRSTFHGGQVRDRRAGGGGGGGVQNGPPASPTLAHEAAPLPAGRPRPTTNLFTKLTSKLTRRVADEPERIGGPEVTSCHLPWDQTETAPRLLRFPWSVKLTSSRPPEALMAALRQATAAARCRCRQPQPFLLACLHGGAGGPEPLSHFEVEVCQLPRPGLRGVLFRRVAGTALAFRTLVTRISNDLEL
Active and inactive are the calls of the source.
Thanks in advance; please answer with one of these: active, inactive

molecule | group-label
COC(=O)[C@@]1(O)C[C@H]2O[C@]1(C)n1c3ccccc3c3c4c(c5c6ccccc6n2c5c31)C(=O)NC4 [K-252A] | active

Short answer needed: outcome of this test for `Cn1cc(-c2ccc(F)c(C(F)(F)F)c2)nc1C1CCN(c2ncnc3[nH]ncc23)CC1` ? inactive

Short answer needed: outcome of this test for `CNC(=O)CN1CCC(Oc2cc3c(Nc4cccc(Cl)c4F)ncnc3cc2OC)CC1` ? inactive

* * *

target: Serine/threonine-protein kinase Nek7 (Homo sapiens); also: in the data inactive means no Kd found up to 30 µM
Sequence (Q8TDX7 whole entry): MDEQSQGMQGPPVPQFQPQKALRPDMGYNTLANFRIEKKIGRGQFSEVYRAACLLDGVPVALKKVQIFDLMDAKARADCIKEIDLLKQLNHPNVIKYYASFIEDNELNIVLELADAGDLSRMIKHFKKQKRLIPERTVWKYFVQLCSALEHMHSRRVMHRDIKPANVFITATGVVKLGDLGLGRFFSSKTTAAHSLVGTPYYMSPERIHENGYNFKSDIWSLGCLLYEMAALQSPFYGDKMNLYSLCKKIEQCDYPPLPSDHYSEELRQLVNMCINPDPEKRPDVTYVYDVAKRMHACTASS
Activity calls are given as the source filed them.
value-type: Kd

molecule-smiles | Kd
Cc1ccc(S(=O)(=O)Nc2nc3ccccc3nc2Nc2ccc3nsnc3c2)cc1 | > 30 µM (inactive)

Enter Kd (test system Serine/threonine-protein kinase Nek7 (Homo sapiens)) for `CN1CC[C@@H](c2c(O)cc(O)c3c(=O)cc(-c4ccccc4Cl)oc23)[C@@H]1CO` > 30 µM (inactive)

Enter Kd (test system Serine/threonine-protein kinase Nek7 (Homo sapiens)) for `CNC(=O)c1cc(Oc2ccc(NC(=O)Nc3ccc(Cl)c(C(F)(F)F)c3)c(F)c2)ccn1` > 30 µM (inactive)

* * *

target: Serine/threonine-protein kinase STK11 (Homo sapiens); also: in the data inactive means no Kd found up to 30 µM
Sequence (Q15831 whole entry): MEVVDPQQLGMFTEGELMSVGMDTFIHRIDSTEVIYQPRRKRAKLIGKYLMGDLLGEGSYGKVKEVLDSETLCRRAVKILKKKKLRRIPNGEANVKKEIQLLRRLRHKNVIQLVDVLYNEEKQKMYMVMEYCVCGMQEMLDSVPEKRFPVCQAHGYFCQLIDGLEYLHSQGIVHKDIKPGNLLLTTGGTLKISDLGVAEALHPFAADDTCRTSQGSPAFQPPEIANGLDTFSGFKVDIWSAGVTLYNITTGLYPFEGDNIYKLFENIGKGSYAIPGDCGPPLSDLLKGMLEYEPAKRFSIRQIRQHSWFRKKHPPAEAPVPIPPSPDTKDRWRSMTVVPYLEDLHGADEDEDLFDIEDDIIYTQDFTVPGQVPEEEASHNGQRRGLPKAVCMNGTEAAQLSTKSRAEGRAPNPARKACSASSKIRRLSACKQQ
The source made the active and inactive calls.
Thanks in advance; please answer with one of these: yes (1) (active), no (0) (inactive)

Short answer needed: outcome of this test for `Cc1ccc(NC(=O)c2ccc(CN3CC[C@H](N(C)C)C3)c(C(F)(F)F)c2)cc1Nc1nccc(-c2cncnc2)n1` ? no (0)

Short answer needed: outcome of this test for `Cn1cc(-c2ccc3nnc(C(F)(F)c4ccc5ncccc5c4)n3n2)cn1` ? no (0)

* * *

molecular target: cAMP-dependent protein kinase catalytic subunit beta (Homo sapiens); also: in the data inactive means no Kd found up to 30 µM
The source made the active and inactive calls.
Thanks in advance; please answer with one of these: active, inactive

A selection of reference data follows.
molecule | system-name | group-label
O=C1NC(=O)/C(=C/c2ccc3nccc(-c4ccncc4)c3c2)S1 [GSK-1059615] | cAMP-dependent protein kinase catalytic subunit beta (Homo sapiens) | inactive
Cc1ccc(S(=O)(=O)Nc2nc3ccccc3nc2Nc2ccc3nsnc3c2)cc1 | cAMP-dependent protein kinase catalytic subunit beta (Homo sapiens) | inactive
CCCS(=O)(=O)Nc1ccc(F)c(C(=O)c2c[nH]c3ncc(-c4ccc(Cl)cc4)cc23)c1F [VEMURAFENIB] | cAMP-dependent protein kinase catalytic subunit beta (Homo sapiens) | inactive

Short answer needed: outcome of this test for CNC(=O)c1cc(Oc2ccc(NC(=O)Nc3ccc(Cl)c(C(F)(F)F)c3)c(F)c2)ccn1 [REGORAFENIB] ? inactive

Short answer needed: outcome of this test for Cn1ncc(Cl)c1-c1cc(C(=O)N[C@H](CN)Cc2cccc(F)c2)sc1Cl [AFURESERTIB] ? active

Short answer needed: outcome of this test for COc1ccc(-c2ccc3c(N4CCOC[C@@H]4C)nc(N4CCOC[C@@H]4C)nc3n2)cc1CO [AZD-8055] ? inactive

Short answer needed: outcome of this test for CNC(=O)CN1CCC(Oc2cc3c(Nc4cccc(Cl)c4F)ncnc3cc2OC)CC1 [SAPITINIB] ? inactive
